Test system: viral RNA polymerase
Assay: Potential inhibitors: Results Screen
Type: biochemical
Conditions: test concentration not given
Assay endpoint: Results Screen Median Screen (% inhibition)
State just the number; it will be interpreted in % inhibition.

In the examples that follow, each entry is paired with its recorded Results Screen Median Screen (% inhibition).
Recorded Results Screen Median Screen (% inhibition) for CC(O)CC1CCC(C(C)C(=O)OC(C)CC2CCC(C(C)C(=O)O)O2)O1 (stereo not drawn) , please? 83

Ok, now COc1cc(C2OC(c3cc(OC)c(OC)c(OC)c3)C(C)C2C)cc(OC)c1OC (stereo not drawn) 67.1

# context switch: different molecule, same Results Screen Median Screen (% inhibition)
Recorded Results Screen Median Screen (% inhibition) for NC(=O)c1c[nH]c(Cc2ccccc2)cc1=O , please? 80

----------
Parameter Results Screen Median Screen (% inhibition): see the listing below.
System: viral RNA polymerase
Assay: Potential inhibitors: Results Screen
Format: biochemical
Conditions: test concentration not given
State just the number; it will be interpreted in % inhibition.

In the examples that follow, each entry is paired with its recorded Results Screen Median Screen (% inhibition).
Lab note: need Results Screen Median Screen (% inhibition) with viral RNA polymerase for entry COc1cc(C2c3c(cc(OC)c(O)c3O)CC(CO)C2CO[C@H]2O[C@@H](C(=O)O)[C@H](O)[C@@H](O)[C@@H]2O)cc(OC)c1O (stereo partly shown) [AD153413-11_A11] , please look it up. 83

Ok, now C=C(/C=C/[C@@H](CCC(=O)O)C(C)C)CCC(C)=O [AD153413-08_B4] 73.6

Ok, now C=C(C)C1=C[C@@]2(C)C(=CC1=O)CC[C@@H](O)[C@@H]2C [AD153413-10_F2] 80

# context switch: different compound, same Results Screen Median Screen (% inhibition)
Lab note: need Results Screen Median Screen (% inhibition) with viral RNA polymerase for entry CC(C)C1NC(=O)C2CCCN2C1=O (stereo not shown) [AD153413-12_C11] , please look it up. 61.7

----------
Test system: viral RNA polymerase
Assay: Potential inhibitors: Results Hit validation
Assay type: biochemical
Conditions: test concentration not given
Assay endpoint: Results Hit validation Median (% inhibition)
State just the number; it will be interpreted in % inhibition.

In the examples that follow, each entry is paired with its recorded Results Hit validation Median (% inhibition).
Recorded Results Hit validation Median (% inhibition) for O=C(OC[C@@H]1O[C@H](Oc2ccc(O)cc2CO)[C@@H](O)[C@H](O)[C@H]1O)c1ccccc1 (racemic) , please? 54.9

Ok, now OC[C@@H]1O[C@H](Oc2ccc(O)c3cccc(O)c23)[C@@H](O)[C@H](O)[C@H]1O 52.6

Ok, now CC1CCC2(C)CCC3(C)C(=CCC4C5(C)CCC(O)C(C)(C(=O)O)C5CCC43C)C2C1C (centres unmarked) 70

Ok, now CC1(C)C2CC[C@]3(C)C(C(=O)C=C4[C@H]5C[C@@](C)(C(=O)O)CC[C@]5(C)CC[C@]43C)[C@@]2(C)CC[C@@H]1O (some centres unmarked) 72.1

# context switch: different compound, same Results Hit validation Median (% inhibition)
Recorded Results Hit validation Median (% inhibition) for CC[C@H](C1=C(O)C(C)(C)C(=O)C(C)(C)C1=O)c1c(O)cc(O)c(C(=O)C(C)C)c1O , please? 61.5
